protocol-summary: protein stability index of a GFP-peptide fusion (yeast GPS) (PSI 1-4); higher = more stable; sorted into four equal gates, so the index is relative within each strain
stated-conditions: doa10∆
readout-type: protein stability index
Response field accepts a number only; no unit should be typed.

protein stability index reading for VYREVCAACHSLDRVAW [CYT1] : 3.36

Just so you know, measured protein stability index for SQSQQKLLKEKVKLFHG [MED2] came out at 3.1

Measured protein stability index of NVSENQPWQMDTNNEAD [SNF12] : 3.11

Lab note: TAFQTQRTAQDRVQQDS [YML031W/NDC1] gave protein stability index of 2.94

Item: ALEFLNTTLQDNVSFIE [REC8] | protein stability index: 2.95

Quick note, protein stability index for LSKFFFFIFVFNFVLLG [COB] landed at 1.42

protein stability index reported for this sequence CRKCYARLPPRATNCRK [RPL40A] : 3.09

According to the records, this sequence ELVVFLPALCKKMGVPY [RPL8A] displays protein stability index of 2.92

Just so you know, measured protein stability index for ESHIDSRNNTLNVTPSK [SIR4] came out at 2.77

What the record says about TANDQYSSILGNSFNKS [YCG1] : protein stability index is 3.13

The reported value for NRGVKLEIVYGYALRDV [RPP1] in terms of protein stability index is 2.54

Recorded result, LGTVQREIESLIAEETN [SMC3] , protein stability index: 2.79

The measured protein stability index associated with DKKSCSVDDVLSALDHI [DPB4] reads 3.29

// sample EKSGISKMSDESFAELM [RPC17] , its protein stability index was 3.26

Reported protein stability index for TGDADEPELRVLSTEEI [RPO21] was 3.59

###

protocol-summary: protein stability index of a GFP-peptide fusion (yeast GPS) (PSI 1-4); higher = more stable; sorted into four equal gates, so the index is relative within each strain
stated-conditions: doa10∆
Field: protein stability index. Provide a value for each of the sequences that follow.

Reported protein stability index ( GVTKGYKYKMRYVYAHF [RPL9A] ) = 2.73

Query GAKVKTMRRQKLTILQE [RET1] yields protein stability index of 1.43

Reported protein stability index ( PNSERSGTPTLKKNIEP [YOR098C/NUP1] ) = 3.32

Lab book: protein stability index of DLAVCATIIGIISTAIA [ECM29] noted as 1.95

The measured protein stability index associated with MPDEFNTLYTAIITDDL [SRP72] reads 2.39

Measured protein stability index, KSPSLTAQKYPIYTGDG [YMR153W/NUP53] : 2.33

Lookup result for TGNGTTTTSNTSGTNIA [YOR098C/NUP1] ; measured protein stability index: 2.96

// recorded protein stability index for LSQQQKDAQKKDIEKLT [YIL149C/MLP2] : 2.79

// recorded protein stability index for MKVKADRDESSPYAAML [RPS14A] : 3.37

Quick note, protein stability index for LAVFLFDIYNRDRKLIT [YJL039C/NUP192] landed at 1.98

Reported protein stability index for HGINLQNKKNLKWVAVV [SSN2] was 2.98

Note to self: protein stability index recorded for RYISTLTLYLFQDYLTQ [IRR1] was 2.14

// recorded protein stability index for SEEEEDEEENGSSDEDL [SSN2] : 3.48

Looking up GRPETYIWRYLPAPPVC [RPO31] , I found its protein stability index recorded as 1.5

Memo: ETNLQTFLPPLLLKLAS [ECM29] , reported protein stability index: 1.65

// protein stability index lookup, sequence = VIDIGASGCNVTPIIDG [ARP7] , result: 2.67

Sure, the documented protein stability index for RQPSLHRLSILSHYAKI [RPO31] is 1.74

Summary for this sequence, QNSYADKVTSQAVNNLI [RPP1] : protein stability index is 1.82

The sequence listed as TLLARAVAHHTDCKFIR [RPT6] has a reported protein stability index of 3.09

TDLGKDIPFFPSSEKPN [SSN2] yielded protein stability index of 2.7

protein stability index in this record for VKCEELSNTLACYRTIM [RRP40] : 2.24

Data point: KKSLEEDDEFEDFPIDT [SEM1] ; protein stability index = 3

Memo: SPELKADLRPLQIKSIR [RPS7B] , reported protein stability index: 2.42

Record ISPLMKSQYNMVLRNVM [SRB8] . Reported protein stability index: 2.32

Input VSITDAPKIHILDPSTE [YMR129W/POM152] . Output protein stability index: 1.56

For RYLVGGNKIQKVLLDSK [RPS7A] the sequence record lists protein stability index as 1.24

The sequence identified as KLKNNASRSQLEKGEIE [YJL039C/NUP192] registered its protein stability index at 3.18

Sure, the documented protein stability index for SKGFVFNSVQKKSRSNL [YAR002W/NUP60] is 3.03

For this sequence ( EIDDTEAEVTAEVNGGD [BRR2] ), measured protein stability index is 3.13

###

protocol-summary: protein stability index of a GFP-peptide fusion (yeast GPS) (PSI 1-4); higher = more stable; sorted into four equal gates, so the index is relative within each strain
stated-conditions: ubr1∆
readout-type: protein stability index
Just the number.

NTATNALRPSDIFGANA [YOR098C/NUP1] has a reported protein stability index of 3.2

The recorded protein stability index for EMGKLRERDITSLFHKF [RRI2] is 1.95

Item: TPSNIRSLCEVLVYDDK [RPC34] | protein stability index: 1.59

# sequence IEPQVINYLALNAANYN [ECM29] ; its protein stability index = 2.33

Entry DSLTQNNNNAPIIIYGT [YOR098C/NUP1] , protein stability index reported as 2.92

Kindly note the recorded protein stability index for FGPKKENRKKDESDSEN [YLR335W/NUP2] , which is 3.42

// field: protein stability index; key: FHILLKLILEWVAPQES [ECM29] ; value = 1.77

###

protocol-summary: protein stability index of a GFP-peptide fusion (yeast GPS) (PSI 1-4); higher = more stable; sorted into four equal gates, so the index is relative within each strain
stated-conditions: ubr1∆
readout-type: protein stability index
I'd appreciate a reply containing only the number, no unit.

// protein stability index value for LKGLLQELKADSPFSLI [SRP72] : 1.45

In plain terms, PPPYVKFFTQSNLEKLP [MED7] has a documented protein stability index of 2.49

Looking up GVDLKLKYSKRRSLKKQ [CSN12] , I see its protein stability index listed as 3.05

Item: ADINKNFLSVITNKHQE [RPN2] | protein stability index: 1.71

The recorded protein stability index for EPYHFISNYNTKYTDDM [SRB8] is 3.19

For HTIFSDVCKTRFNHLVT [YML031W/NDC1] the sequence record lists protein stability index as 2.04

Item: QDEEQTEHLTELSDNEE [YCG1] | protein stability index: 3.02

Kindly note the recorded protein stability index for FLLVPSKQVQVSQQPLS [ECM29] , which is 2.17

Lab book: protein stability index of GRLASTIAKQVLNGQKI [RPL16B] noted as 2.58

What the record says about DDLALPYQHPPNIFPNL [ITC1] : protein stability index is 3.21

response.value for DTDKLPIKNRTSKSFSK [SIN4] (field: protein stability index) = 2.92

# sequence SAGAVFKSSVEMGKTDK [YOR098C/NUP1] ; its protein stability index = 3.47

Sample SFNMAQIPQQLYQSLTP [SNF5] ; protein stability index observed: 2.12

# protein stability index (sequence: ECLPAEGHDWKAPTKLD [DIS3] ) is 3.23

response.value for CTNLTNRTLYELADLPK [GRR1] (field: protein stability index) = 3.1

The recorded protein stability index for entry GSFKYITARSAFVEFGA [SWP82] equals 2.56

protein stability index reading for FVPVPSLAGFHKVQTKL [RPS7A] : 2.75

The value of protein stability index measured for the sequence VFGTIIPKISDYIEFNI [YJL039C/NUP192] turned out to be 1.61

protein stability index in this record for MAKSKNHTAHNQTRKAH [RPL29] : 2.32

Input DKKEMTIYNNIREGQNQ [SIR3] . Output protein stability index: 3.27

protein stability index recorded for this sequence, RYISTLTLYLFQDYLTQ [IRR1] , is 3.38

Record LIRPSSKVIIKFLQVMQ [RPS22A] , field protein stability index: 2.25

protein stability index recorded for this sequence, SPNFKNYLKYLEYWCNP [SOH1] , is 2.71

Looking up MNNETSGKETASAPLCS [DLS1] , I see its protein stability index listed as 3.12

Documented protein stability index of REILCYSKDAKEIYYTP [FAS2] : 2.71

Value of measured protein stability index for the entry SLQDRSSLVRRNSVKLL [YCS4] : 1.56

Documented protein stability index of IQEQRVKDKQSKVSDDS [RPN8] : 2.92

protein stability index in this record for KELEPWDLQLQEKESQI [SMC4] : 3.36

Per the record, EILGINLANEQPVLEKP [SIR4] has protein stability index of 3.11

SMKANTSTNPNGLGTSH [ARP7] yielded protein stability index of 3.27

So, FGKKRLDLAGPLLAQLF [RPB2] ? Its protein stability index was 1.4

The reported protein stability index of the sequence RAAKLAAPENEKPAPVR [RPS15] was 3.36

Looking up DLYHFALNYENEAGRKL [SNF2] , I see its protein stability index listed as 3.76

So, LFQELSKVVDDMPSLRL [GRR1] ? Its protein stability index was 2.31

The recorded protein stability index for EIPTQIYRTTRQDGSYT [ARP9] is 3.06

Notebook: NPIHVSRHFASYANLPG [FAS1] , protein stability index read as 2.11

Reported protein stability index for FQQQQQQQQQQQQPQPQ [PGD1] was 3.05

Lab note: LFQRQKLHEFYLLISKE [IRR1] gave protein stability index of 2.87

Consider MNQSSIDRGLFRSLFFR [RPB2] . Its measured protein stability index is 2.94

sequence AGRKFKSRRCDDMLYYI [POP4] , protein stability index observed: 3.04

The recorded protein stability index for entry LTTQFVTDKYTAKKTNR [YDL088C/ASM4] equals 2.8

Recorded result, DRDESSPYAAMLAAQDV [RPS14A] , protein stability index: 3.27

Just so you know, measured protein stability index for KVSSLKMFIQRILAMCV [YCS4] came out at 2.88

// field: protein stability index; key: DGTSTEKTFLHLPCTIE [RPN8] ; value = 1.41

Memo: KLSSAENANADLENKFN [YIL149C/MLP2] , reported protein stability index: 3.1

So for IEITNSNDLCSQIFDQL [SRB8] , the logged protein stability index turned out to be 2.74

Quick note, protein stability index for DLASSKEVLAKIVDLLA [RPN5] landed at 2.97

Lab book: protein stability index of ENDTNMNETLNLKVELK [SMC4] noted as 2.99

Note to self: protein stability index recorded for TPGLTFNAIDLARHLPA [RPC82] was 3.21

protein stability index recorded for this sequence, DRVAKVLTYPEKVTRYN [RPO31] , is 2.98

Form: sequence = GTVSRVNRLLSVIPLKG [RRP4] ; protein stability index = 1.23

Reported protein stability index ( QLESYEYMVQYIDEMYN [RRI1] ) = 2.42

// protein stability index value for QQSTDADEDDEDAKYVI [RPT1] : 3.8

Entry QQVEGKLSQMILDKIFY [RPN6] — recorded protein stability index = 2.94

Item: PSEDVAAPKKTRKAVRP [RPL6B] | protein stability index: 2.91

// field: protein stability index; key: LNDRFQTLSSHLEALQP [PGD1] ; value = 2.54

The sequence listed as PKDFSPNFTGIDKLMLS [SSN2] has a reported protein stability index of 1.26

response.value for DEVNDRSDISDSEGGLF [PCI8] (field: protein stability index) = 3.06

// recorded protein stability index for QDDDDYVDTATAKRKSR [IRR1] : 2.93

// protein stability index value for LLTLTNAANVPVENIWA [RPP1A] : 2.55

Reported protein stability index for GAAGAWMMNGALQILNS [FAS2] was 1.68
